# Target: GST tagged LXRalpha LBD (ligand binding domain) (Homo sapiens)
# Construct: purchased Invitrogen pv4655
# Sequence (Q13133 209-447 limits assumed): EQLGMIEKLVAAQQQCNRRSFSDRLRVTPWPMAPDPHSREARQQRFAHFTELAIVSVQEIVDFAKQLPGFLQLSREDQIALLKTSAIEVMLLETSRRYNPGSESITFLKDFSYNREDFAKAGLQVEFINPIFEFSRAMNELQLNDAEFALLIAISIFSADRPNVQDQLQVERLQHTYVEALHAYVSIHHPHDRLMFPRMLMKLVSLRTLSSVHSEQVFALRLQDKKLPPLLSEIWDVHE
# Procedure Text: LanthaScreen TR-FRET Liver X Receptor Coactivator Assay, LXR alpha-LBD (co-activator recruitment; IP and % Emax relative to T0901317)
# Assay type: biochemical
# Experimental Conditions: efficacy at max dose in relation to reference T0901317, LXR alpha-LBD; read-out: LXR alpha actiivty at max dose (%)
Ranges used to classify Emax: interval 1 = under 4%, interval 2 = from 4% up to 20%, interval 3 = 20% and over

Solved entries:
Compound	Category
COc1cccc([C@@](O)(C(=O)N(C)CCC2CC23CCN(c2ccc(C(=O)NC(C)C)c(Cl)n2)CC3)C(F)(F)F)c1 (stereo in doubt)	interval 3
CN(C)C(=O)c1ccc(N2CCC(C[C@@H]3C[C@H]3CN(C)C(=O)[C@](O)(c3ccccc3)C(F)(F)F)CC2)nc1Cl	interval 2
CC(C)[C@@]1(C(=O)N(C)CCCC2CCN(c3ccc(C(=O)N(C)C)c(Cl)n3)CC2)CCCO1	interval 2
CN(C)C(=O)c1ccc(N2CCC(CCCN(C)C(=O)[C@](O)(c3cccc(O)c3)C(F)(F)F)CC2)nc1Cl	interval 3
COc1cccc([C@@](O)(C(=O)N(C)CC[C@H]2CC23CCN(c2ccc(C(=O)N(C)C)c(Cl)c2)CC3)C(F)(F)F)c1	interval 3
COc1cccc([C@@](O)(C(=O)N(C)CCCC2CCN(c3ccc(C(=O)N(C)C)c(Cl)n3)CC2)C(F)F)c1	interval 1
CN(C)C(=O)c1ccc(N2CCC3(CC2)C[C@@H]3CCN(C)C(=O)[C@](O)(c2cccc(OC3CC3)c2)C(F)(F)F)cc1Cl	interval 3
CN(C)C(=O)c1ccc(N2CCC(CCCN(C)C(=O)[C@@](O)(c3cccc(C(F)(F)F)c3)C(F)(F)F)CC2)nc1Cl	interval 1

Query :: Kindly state the category for this compound: CN(C)C(=O)c1ccc(N2CCC(CCCNC(=O)C3(c4ccccc4)CCCC3)CC2)nc1Cl
Result :: interval 3

Query :: Could you tell me which band COc1cccc([C@@](O)(C(=O)N(C)CCCC2CCN(c3ncc(C(=O)N(C)C)cc3Cl)CC2)C(F)(F)F)c1 belongs to?
Result :: interval 1

----------
# Target: GST tagged LXRbeta LBD (ligand binding domain) (Homo sapiens, UniProt P55055)
# Procedure Text: LanthaScreen TR-FRET Liver X Receptor Coactivator Assay, LXR beta-LBD (co-activator recruitment; IP and % Emax relative to T0901317)
# Experimental Conditions: Inflection Point of co-activator recruitment, LXR beta-LBD, TR-FRET
# From the text: […]
pEC50: −log10 of the molar value.
Note to self: values exactly at 7 are True. So pEC50 at or above 7 is True, below is False.

Compound	Category
CC(C)[C@](O)(C(=O)N(C)CCCC1CCN(c2ccc(C(=O)N(C)C)c(Cl)n2)CC1)c1ccccc1 [Example 1-2]	False
CN(C)C(=O)c1ccc(N2CCC([C@H]3C[C@@H](N(C)C(=O)[C@](O)(c4cccc(C5CC5)c4)C(F)(F)F)C3)CC2)nc1Cl [Example 17-2]	True
CN(C)C(=O)c1ccc(N2CCC(CCCN(C)C(=O)[C@](O)(c3cccc(C(F)(F)F)c3)C(F)(F)F)CC2)nc1Cl [Example 1-49]	True
CN(C)C(=O)c1ccc(N2CCC(CCCN(C)C(=O)[C@@](O)(c3cccc(C(F)(F)F)c3)C(F)(F)F)CC2)nc1Cl [Example 1-48]	False

Let's switch to this compound now.
Query :: Is pEC50 for CN(C)C(=O)c1ccc(N2CCC(CCCNC(=O)[C@](O)(c3cc(Cl)cc(Cl)c3)C(F)(F)F)CC2)nc1Cl [Example 5-13] at or above 7?
Result :: False

----------
# Target: GST tagged LXRbeta LBD (ligand binding domain) (Homo sapiens, UniProt P55055)
# Construct: purchased Invitrogen pv4658.pps
# Sequence (P55055 222-460 limits assumed): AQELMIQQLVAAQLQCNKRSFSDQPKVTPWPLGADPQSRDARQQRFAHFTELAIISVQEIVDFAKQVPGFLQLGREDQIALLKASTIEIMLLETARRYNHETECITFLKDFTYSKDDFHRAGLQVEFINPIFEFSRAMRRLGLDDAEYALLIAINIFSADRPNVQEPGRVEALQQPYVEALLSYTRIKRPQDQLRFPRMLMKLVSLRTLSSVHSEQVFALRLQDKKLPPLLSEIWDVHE
# Procedure Text: LanthaScreen TR-FRET Liver X Receptor Coactivator Assay, LXR beta-LBD (co-activator recruitment; IP and % Emax relative to T0901317)
# Assay type: biochemical
# Experimental Conditions: efficacy at max dose in relation to reference T0901317, LXR beta-LBD; read-out: LXR beta actiivty at max dose (%)
Value Type: Emax (%)
Answers are plain numbers, in %.

Give me Emax for each of these molecules, listed below.
1. CNC(=O)c1ccc(N2CCC(c3ccc(NC(=O)[C@](O)(c4cccc(OC)c4)C(F)(F)F)cc3)CC2)cc1Cl
2. CN(C)C(=O)c1ccc(N2CCC(C[C@H]3C[C@H]3CN(C)C(=O)[C@](O)(c3ccccc3)C(F)(F)F)CC2)nc1Cl
3. COc1cccc([C@@](O)(C(=O)N(C)C[C@H](C)CC2CCN(c3ccc(C(=O)N(C)C)c(Cl)n3)CC2)C(F)(F)F)c1 (single isomer, unassigned)
4. COc1cccc([C@@](O)(C(=O)N(C)CCCC2CCN(c3ccc(C(=O)N4CC[C@H](CO)C4)c(Cl)n3)CC2)C(F)(F)F)c1

Result ::
1. 40
2. 56
3. 70
4. 47

Lab note: each molecule below needs its Emax filled in.
1. COc1cccc([C@@](O)(C(=O)N(C)CCCC2CCN(c3ccc(C(=O)N4CCCC4)c(Cl)n3)CC2)C(F)(F)F)c1
2. COc1cccc(C2(C(=O)N(C)CCCC3CCN(c4ccc(C(=O)N(C)C)c(Cl)n4)CC3)CCOCC2)c1
3. COc1cccc([C@@](O)(C(=O)NC[C@@H](F)CC2CCN(c3ccc(C(=O)N(C)C)c(Cl)n3)CC2)C(F)(F)F)c1

Result ::
1: 50; 2: 39; 3: 38

Dear colleague, could you please provide Emax for the molecules listed below?
1. Cc1cccc([C@@](O)(C(=O)N(C)CCCC2CCN(c3ccc(C(=O)N(C)C)c(Cl)n3)CC2)C(F)(F)F)c1
2. CN(C)C(=O)c1ccc(N2CCC(C)(CCCN(C)C(=O)[C@]3(c4ccccc4)CCCO3)CC2)nc1Cl
3. COc1cccc([C@](O)(C(=O)N(C)CCCC2CCN(c3ccc(C(=O)N(C)C)c(Cl)n3)CC2)C(F)(F)F)c1

Result ::
55
94
53

Give me Emax for each of these molecules, listed below.
1. CN(C)C(=O)c1ccc(N2CCC([C@H]3C[C@@H](N(C)C(=O)[C@](O)(c4cccc(C5CC5)c4)C(F)(F)F)C3)CC2)nc1Cl
2. COc1cccc([C@@](O)(C(=O)N(C)CCCC2(F)CCN(c3ccc(C(=O)N(C)C)c(Cl)c3)CC2)C(F)(F)F)c1
3. CN(C)C(=O)c1ccc(N2CCC(CCCNC(=O)[C@](O)(c3cccc(C4CC4)c3)C(F)(F)F)CC2)nc1Cl

Result ::
1. 43
2. 25
3. 44

----------
# Target: GST tagged LXRbeta LBD (ligand binding domain) (Homo sapiens)
# Construct: purchased Invitrogen pv4658.pps
# Procedure Text: LanthaScreen TR-FRET Liver X Receptor Coactivator Assay, LXR beta-LBD (co-activator recruitment; IP and % Emax relative to T0901317)
# Assay type: biochemical
# Experimental Conditions: efficacy at max dose in relation to reference T0901317, LXR beta-LBD; read-out: LXR beta actiivty at max dose (%)
Give Emax for every item shown.

Before answering, review these 3 worked examples.
Compound	Emax
CNC(=O)c1ccc(N2CCC(CC3CC(NC(=O)[C@](O)(c4cccc(OC)c4)C(F)(F)F)C3)CC2)cc1Cl (stereo partly shown)	53%
COc1cccc([C@@](O)(C(=O)N(C)CC(C)CC2CCN(c3ccc(C(=O)N(C)C)c(Cl)n3)CC2)C(F)(F)F)c1 (single isomer, unassigned)	81%
CCOc1cccc([C@@](O)(C(=O)N(C)CCCC2CCN(c3ccc(C(=O)N(C)C)c(Cl)c3)CC2)C(F)(F)F)c1	49%

Query :: Requested read-out Emax, target or system GST tagged LXRbeta LBD (ligand binding domain) (Homo sapiens), entry COc1cccc([C@@](O)(C(=O)NC2(CCC3CCN(c4ccc(C(=O)N(C)C)c(Cl)n4)CC3)CC2)C(F)(F)F)c1
Result :: 82%

----------
# Target: GST tagged LXRbeta LBD (ligand binding domain) (Homo sapiens, UniProt P55055)
# Construct: purchased Invitrogen pv4658.pps
# Procedure Text: LanthaScreen TR-FRET Liver X Receptor Coactivator Assay, LXR beta-LBD (co-activator recruitment; IP and % Emax relative to T0901317)
# Assay type: biochemical
# Experimental Conditions: efficacy at max dose in relation to reference T0901317, LXR beta-LBD; read-out: LXR beta actiivty at max dose (%)
Kindly supply the reported Emax values for the records listed here.
Answers are plain numbers, in %.

Compound	Value Type	Readout Value
CN(C)C(=O)c1ccc(N2CCC([C@@H]3C[C@H]3CNC(=O)[C@](O)(c3ccccc3)C(F)(F)F)CC2)nc1Cl [Example 15-14]	Emax	69
COc1cccc([C@@](O)(C(=O)N(C)CCCC2CCN(c3ccc(C(=O)NC4CC4)c(Cl)n3)CC2)C(F)(F)F)c1 [Example 2-2]	Emax	44
COc1cccc([C@@](O)(C(=O)N(C)CCCC2CCN(c3ccc(C(=O)N4CC(N)C4)c(Cl)n3)CC2)C(F)(F)F)c1 [Example 2-13]	Emax	60
COc1cccc([C@@](O)(C(=O)NCCCC2CCN(c3ccc(C(=O)N(C)C)c(Cl)n3)CC2)C(F)(F)F)c1.O=C(O)C(F)(F)F [Example 5-20]	Emax	69
CN(C)C(=O)c1ccc(N2CCC([C@H]3C[C@H]3CN(C)C(=O)[C@](O)(c3cccc(OC4CC4)c3)C(F)(F)F)CC2)nc1Cl [Example 15-8]	Emax	59
CN(C)C(=O)c1ccc(N2CCC3(CC2)CC3CCN(C)C(=O)[C@@](O)(c2ccccc2)C(F)(F)F)cc1Cl (stereo partly shown) [Example 7-1]	Emax	54

Below are some compounds; for each one, tell me its Emax.
1. COc1cccc([C@@](O)(C(=O)N(C)CC[C@@H]2CC23CCN(c2ccc(C(=O)N(C)C(C)C)c(Cl)c2)CC3)C(F)(F)F)c1 [Example 7-30]
2. COc1cccc([C@@](O)(C(=O)N(C)CCCC2(C)CCN(c3ccc(C(=O)N(C)C)c(Cl)n3)CC2)C(F)(F)F)c1 [Example 9-1]
3. CN(C)C(=O)c1ccc(N2CCC(CCCNC(=O)[C@](O)(c3cccc(OC4CC4)c3)C(F)(F)F)CC2)nc1Cl [Example 5-11]
4. COc1cccc([C@@](O)(C(=O)Nc2cccc(C3CCN(c4ccc(C(=O)N(C)C)c(Cl)n4)CC3)c2)C(F)(F)F)c1 [Example 10-4]
5. CN(C)C(=O)c1ccc(N2CCC(CCCN(C)C(=O)[C@@]3(c4ccccc4)CCOC3)CC2)nc1Cl [Example 1-55]

Result ::
[27, 37, 46, 49, 48]

Batch request: Emax for each of the following compounds.
1. CN(C)C(=O)c1ccc(N2CCC(CCCN(C)C(=O)[C@@]3(C(F)(F)F)CCCO3)CC2)nc1Cl [Example 1-7]
2. COc1cccc([C@](O)(C(=O)N(C)C[C@@H]2C[C@@H]2CC2CCN(c3ccc(C(=O)N(C)C)c(Cl)n3)CC2)C(F)(F)F)c1 [Example 18-3]

Result ::
[94, 25]
